- protocol.description: folding stability dG unfold (combined trypsin and chymotrypsin); higher = more stable
folding stability dG unfold reference
Kindly answer with a numeric value in kcal/mol, unit omitted.

Worked examples follow.
1) SAGGSAGGSAGGLPEGWVLKTETKTVKLKVKVKVDGKEYEFEVEVKVTRIELVPKEELESAGGSAGGSAGGS [r10_300_TrROS_Hall] | 3.76
2) SAGGSAGGSAGKPKTLEVEMLVLDPETRRLYRVRMEIVLDPEDEGKLTIRLEIEELELPDSAGGSAGGSAGG [r17_241_TrROS_Hall] | 4.27
3) SKAEIVEIKIEKVEKDGKKYYKVKIKVKTKDGKIKEIEITFPEGMSEEEIKKKIEELAKELGIEKVEIKPSA [r9_1203_TrROS_Hall] | 4.53
4) SAVPLELPLSDEELRELLEKHSVDSTITLTLKVGDRWVRVTVTLKEVKREPNRLSVSVELTVTPLPPEESAG [r14_335_JUSTAS] | 3.81
5) SAGGSAGGSAGMNKKGKYTVIEELVINPKTNYLFKKKVTIYPDGKIEVKSELLGPILPTESAGGSAGGSAGG [r11_226_TrMRF] | 1.03

Please turn your attention to the following entry.
[Q] Supply recorded folding stability dG unfold for SAGGSAGGKNWRTIPFMIWIPPGAPPIEFEIPLPDGWKVEIEISVVRNPDGWYFIMFSITVQPDSAGGSAGG [r6_510_TrROS] here.
[A] 3.81
